- studySystem: Indoleamine 2,3-dioxygenase 1 (Homo sapiens, UniProt P14902)
- Sequence (P14902 whole entry): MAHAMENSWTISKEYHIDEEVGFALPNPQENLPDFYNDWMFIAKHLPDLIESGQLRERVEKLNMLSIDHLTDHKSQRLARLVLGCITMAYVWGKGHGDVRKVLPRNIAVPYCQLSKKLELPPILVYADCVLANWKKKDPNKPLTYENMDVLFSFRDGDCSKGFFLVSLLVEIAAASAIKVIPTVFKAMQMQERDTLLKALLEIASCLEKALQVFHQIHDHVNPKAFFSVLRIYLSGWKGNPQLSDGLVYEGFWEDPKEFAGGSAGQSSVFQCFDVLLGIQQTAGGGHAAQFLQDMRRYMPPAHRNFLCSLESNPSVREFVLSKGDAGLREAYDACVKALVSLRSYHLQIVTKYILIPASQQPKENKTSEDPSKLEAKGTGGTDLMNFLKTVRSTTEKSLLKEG
- testDetails: Inhibition of Indoleamine 2,3-dioxygenase in human HeLa cells in presence of L-tryptophan as substrate after 24 hrs in presence of L-tryptophan
pEC50: −log10 of the molar value.
recordedEndpoint: pEC50

O=S(=O)(NNc1ccc(Br)cc1)c1ccc2[nH]c(O)nc2c1 7.20
Cn1c(=O)n(C)c2cc(S(=O)(=O)NNc3ccc(Br)cc3)ccc21 6.87
O=c1ccc2cc(S(=O)(=O)NNc3ccc(Br)cc3)ccc2[nH]1 6.67
O=C1CCCc2cc(S(=O)(=O)NNc3ccc(Br)cc3)ccc2N1 6.71
O=C1CCCN1c1ccc(S(=O)(=O)NNc2ccc(Br)cc2)cc1 7.05
O=C1CCc2cc(S(=O)(=O)NNc3ccc(Br)cc3)ccc2N1 7.17
CC(=O)N1CCc2cc(S(=O)(=O)NNc3ccc(Br)cc3)ccc21 6.64
O=C1Cc2cc(S(=O)(=O)NNc3ccc(Br)cc3)ccc2N1 7.17
CC1(C)C(=O)Nc2ccc(S(=O)(=O)NNc3ccc(Br)cc3)cc21 7.44

(P) CN1C(=O)Cc2cc(S(=O)(=O)NNc3ccc(Br)cc3)ccc21
(Q) Nc1nc2cc(S(=O)(=O)NNc3ccc(Br)cc3)ccc2[nH]1
(R) O=C1Nc2ccc(S(=O)(=O)NNc3ccc(Br)cc3)cc2C1(F)F
(S) O=C(CCN1CCOCC1)Nc1ccc(S(=O)(=O)NNc2ccc(Br)cc2)cc1
Q. Output the entries ranked by pEC50 from maximum down to minimum. Respond with an ordered listing of the labels, as requested.
A. R, Q, S, P
